Entries and their IC50 values follow.
Biological target: KRas G12C (Homo sapiens, UniProt P01116, G12C)
Sequence (P01116 1-188 isoform P01116-2 G12C): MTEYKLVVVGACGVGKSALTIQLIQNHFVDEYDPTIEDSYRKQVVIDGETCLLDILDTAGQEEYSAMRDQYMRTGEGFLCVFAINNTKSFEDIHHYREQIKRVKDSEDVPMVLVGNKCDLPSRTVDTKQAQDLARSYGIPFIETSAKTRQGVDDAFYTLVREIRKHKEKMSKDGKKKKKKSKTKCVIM
Test: Cellular inhibition of KRas G12C measured by Phospho-ERK in NCI-H358 cells
Assay type: cell-based
Details: pERK(Thr202/Tyr204) normalized with GAPDH, NCI-H358 cells, 3 hours; read-out: IC50
measure: IC50

>>> df
                                    compound  value_reported
 0  C=C(F)C(=O)N1CCN(c2nc(OC[C@@H]3CCCN3C)nc3c2CCN(c2c(C(F)(F)F)c(C)cc4[nH]ncc24)C3)C[C@@H]1CC#N [Example 555]  0.1 to 1000 nM
 1  C=CC(=O)N1CCN(c2nc(OC[C@H]3CCCN3C)nc3c2CCN(c2cccc(Cl)c2C(F)(F)F)C3)C[C@@H]1CC#N [Example 319]  0.1 to 1000 nM
 2  CC#CC(=O)N1CCN(c2nc(OC[C@@H]3CCCN3C)nc3c2CCN(c2cccc4cccc(Cl)c24)C3)C[C@@H]1CC#N [Example 391]  0.1 to 1000 nM
 3  C=CC(=O)N1CCN(c2nc(OCCCN3CCCOCC3)nc3c2CCN(c2cc(O)cc4ccccc24)C3)CC1 [Example 101]  0.1 to 1000 nM
 4  C=C(F)C(=O)N1CCN(c2nc(OCc3ccccn3)nc3c2CCN(c2cccc4cccc(C)c24)C3)C[C@@H]1CC#N [Example 605]       > 1000 nM
 5  C=CC(=O)N1CCN(c2nc(OC[C@@H]3CC(F)(F)CN3C)nc3c2CCN(c2cccc4ccccc24)C3)C[C@@H]1CC#N [Example 447]  0.1 to 1000 nM
 6  C=CC(=O)N1CCN(c2nc(OCCCN3C[C@@H](F)[C@@H](F)C3)nc3c2CCN(c2cc(O)cc4ccccc24)C3)CC1 [Example 208]       > 1000 nM
 7  C=CC(=O)N1C[C@@H](C)N(c2nc(OC[C@@H]3CCCN3C)nc3c2CCN(c2cccc4ccccc24)C3)C[C@@H]1CC#N [Example 378]  0.1 to 1000 nM
 8  C=CC(=O)N1C[C@H](C)N(c2nc(OC[C@@H]3CCCN3C)nc3c2CCN(c2cc(O)cc4ccccc24)C3)C[C@H]1C [Example 336]  0.1 to 1000 nM
 9  C=CC(=O)N1CCN(c2nc(OC[C@@H]3CCCN3C)nc3c2CCN(c2cccc4ccccc24)C3)C(C)(C)C1 [Example 354]       > 1000 nM
10  C=CC(=O)N1CCN(c2nc(OC[C@@H]3CCCN3C)nc3c2CCN(c2cccc(F)c2F)C3)C[C@@H]1CC#N [Example 407]       > 1000 nM
11  C=CC(=O)N1CCN(c2nc(OC[C@@H]3CCCN3C(C)C)nc3c2CCN(c2cccc4ccccc24)C3)CC1CC#N (some centres unmarked) [Example 285]  0.1 to 1000 nM
12  C=CC(=O)N1CCN(c2nc(OCC3CN(C)CCN3)nc3c2CCN(c2cc(O)cc4ccccc24)C3)CC1 (centres unmarked) [Example 80]       > 1000 nM
13  C=CC(=O)N1CCN(c2nc(OC[C@H]3CCCN3C)nc3c2CCN(c2ccccc2C(F)(F)F)C3)CC1CC#N (some centres unmarked) [Example 283]  0.1 to 1000 nM

###

Assay: In vitro stability in human whole blood
Assay type: in vitro ADME
Details: male, whole blood diluted to 50% with PBS, pH 7.4, human whole blood diluted to 50% with PBS, 5 μM, 37° C., 240-minute incubation, read-out: Compound Half-life
measure: half-life at 5 µM

>>> df
                            chemical_smiles            measure  value_reported
0  COC/C=C/C(=O)N1CCN(c2nc(OC[C@@H]3CCCN3C)nc3c2CCN(c2cccc4cccc(C)c24)C3)C[C@@H]1CC#N  half-life at 5 µM        > 33.3 h
1  Cc1cccc2cccc(N3CCc4c(nc(OC[C@@H]5CCCN5C)nc4N4CCN(C(=O)/C=C/Cn5cccn5)[C@@H](CC#N)C4)C3)c12  half-life at 5 µM        > 33.3 h
2  C=CC(=O)N1CCN(c2nc(OC[C@@H]3CCCN3C)nc3c2CCN(c2cccc4cccc(Cl)c24)C3)C[C@@H]1CC#N  half-life at 5 µM  3.33 to 16.7 h
3  CN1CCC[C@H]1COc1nc2c(c(N3CCN(C(=O)/C=C/CN4CC(F)C4)[C@@H](CC#N)C3)n1)CCN(c1cccc3cccc(Cl)c13)C2  half-life at 5 µM        > 33.3 h
4  C=C(F)C(=O)N1CCN(c2nc(OC[C@@H]3CCCN3C)nc3c2CCN(c2cccc4cccc(Cl)c24)C3)C[C@@H]1CC#N  half-life at 5 µM        > 33.3 h
5  C=C(C(=O)N1CCN(c2nc(OC[C@@H]3CCCN3C)nc3c2CCN(c2cccc4cccc(Cl)c24)C3)C[C@@H]1CC#N)C(F)(F)F  half-life at 5 µM        ≤ 3.33 h

###

// reported half-life at 5 µM per item
Experiment: In vitro stability in human whole blood
Format: in vitro ADME
Conditions: male, whole blood diluted to 50% with PBS, pH 7.4, human whole blood diluted to 50% with PBS, 5 μM, 37° C., 240-minute incubation, read-out: Compound Half-life
measure: half-life at 5 µM

>>> df
                                   molecule            measure   value_reported
0  Cc1cccc2cccc(N3CCc4c(nc(OC[C@@H]5CCCN5C)nc4N4CCN(C(=O)/C=C\C#N)[C@@H](CC#N)C4)C3)c12  half-life at 5 µM  200 to 1000 min
1  CC(C)[N+](C)(CCOC(=O)C1c2ccccc2Oc2ccccc21)C(C)C [Propantheline, reference compound]  half-life at 5 µM        ≤ 200 min
2  Cc1cccc2cccc(N3CCc4c(nc(OC[C@@H]5CCCN5C)nc4N4CCN(C(=O)/C=C/C(F)(F)F)[C@@H](CC#N)C4)C3)c12  half-life at 5 µM        ≤ 200 min
3  Cc1cccc2cccc(N3CCc4c(nc(OC[C@@H]5CCCN5C)nc4N4CCN(C(=O)/C=C/C#N)[C@@H](CC#N)C4)C3)c12  half-life at 5 µM        ≤ 200 min
4  COC/C=C/C(=O)N1CCN(c2nc(OC[C@@H]3CCCN3C)nc3c2CCN(c2cccc4cccc(Cl)c24)C3)C[C@@H]1CC#N  half-life at 5 µM       > 2000 min
5  Cc1cccc2cccc(N3CCc4c(nc(OC[C@@H]5CCCN5C)nc4N4CCN(C(=O)/C=C/CCl)[C@@H](CC#N)C4)C3)c12  half-life at 5 µM       > 2000 min

###

Target: KRas G12C (Homo sapiens, UniProt P01116, G12C)
Assay: Cellular inhibition of KRas G12C measured by Phospho-ERK in NCI-H358 cells
Format: cell-based
Details: pERK(Thr202/Tyr204) normalized with GAPDH, NCI-H358 cells, 3 hours; read-out: IC50
pIC50: −log10 of the molar value.
Listed next: entries and their corresponding pIC50.
measure: pIC50

                                   compound  measure  value_reported
0  C=CC(=O)N1CCN(c2nc(OCC3CCN(C4CC4)C3)nc3c2CCN(c2cc(O)cc4ccccc24)C3)CC1 (stereo not shown) [Example 190]    pIC50   6.00 to 10.00
1  C=CC(=O)N1CCN(c2nc(OC[C@@H]3CCCN3C)nc3c2CCN(c2cccc4ncccc24)C3)CC1CC#N (stereo partly shown) [Example 264]    pIC50          < 6.00
2  C=CC(=O)N1CCN(c2nc(OCC3CCN(CCOC)C3)nc3c2CCN(c2cc(O)cc4ccccc24)C3)CC1 (stereo not shown) [Example 103]    pIC50   6.00 to 10.00
3  C=CC(=O)N1CCN(c2nc(OC[C@@H]3C[C@@H](F)CN3C)nc3c2CCN(c2cc(O)cc4ccccc24)C3)CC1 [Example 357]    pIC50   6.00 to 10.00
4  C=CC(=O)N1CCN(c2nc(OC[C@H]3CCCN3C)nc3c2CCN(c2cccc(F)c2C(F)(F)F)C3)C[C@@H]1CC#N [Example 274]    pIC50   6.00 to 10.00
5  C=CC(=O)N1CCN(c2nc(OC[C@@H]3CCCN3C)nc3c2CCN(c2cc(O)cc4ccccc24)C3)[C@@H](C)C1 [Example 202]    pIC50   6.00 to 10.00
6  C=CC(=O)N1CCN(c2nc(O[C@H](C)CN3CC[C@H](O)C3)nc3c2CCN(c2cc(O)cc4ccccc24)C3)CC1 [Example 65]    pIC50          < 6.00
